# tested.target: BRAF V600E (Homo sapiens, UniProt P15056+Q96SW2, V600E)
# Construct: knock-in of the HiBiT tag to the endogenous BRAF V600E locus; host or cells: A375.10 (A375 clonal line, CRISPR HiBiT knock-in at the endogenous BRAF V600E locus)
# Sequence (P15056 whole entry V600E): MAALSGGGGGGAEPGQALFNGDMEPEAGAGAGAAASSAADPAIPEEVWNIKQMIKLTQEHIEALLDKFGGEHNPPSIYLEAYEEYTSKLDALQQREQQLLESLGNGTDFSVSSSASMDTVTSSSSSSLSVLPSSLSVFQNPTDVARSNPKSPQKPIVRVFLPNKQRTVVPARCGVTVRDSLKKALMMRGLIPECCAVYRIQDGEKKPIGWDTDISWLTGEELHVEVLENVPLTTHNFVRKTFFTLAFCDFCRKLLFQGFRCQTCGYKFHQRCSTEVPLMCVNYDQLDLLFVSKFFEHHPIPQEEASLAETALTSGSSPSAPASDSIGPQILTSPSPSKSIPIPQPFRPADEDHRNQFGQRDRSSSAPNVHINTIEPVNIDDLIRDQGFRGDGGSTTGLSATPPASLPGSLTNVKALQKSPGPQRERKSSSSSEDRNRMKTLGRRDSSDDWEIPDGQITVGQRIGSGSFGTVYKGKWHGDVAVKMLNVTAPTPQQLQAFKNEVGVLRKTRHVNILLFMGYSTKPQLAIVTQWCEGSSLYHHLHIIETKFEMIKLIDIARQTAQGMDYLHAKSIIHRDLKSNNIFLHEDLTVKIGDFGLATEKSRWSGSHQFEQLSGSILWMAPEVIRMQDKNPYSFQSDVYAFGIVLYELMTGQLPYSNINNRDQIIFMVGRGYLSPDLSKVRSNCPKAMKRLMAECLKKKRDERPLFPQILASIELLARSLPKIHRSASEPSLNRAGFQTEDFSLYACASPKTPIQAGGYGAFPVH
# Sequence (Q96SW2 whole entry): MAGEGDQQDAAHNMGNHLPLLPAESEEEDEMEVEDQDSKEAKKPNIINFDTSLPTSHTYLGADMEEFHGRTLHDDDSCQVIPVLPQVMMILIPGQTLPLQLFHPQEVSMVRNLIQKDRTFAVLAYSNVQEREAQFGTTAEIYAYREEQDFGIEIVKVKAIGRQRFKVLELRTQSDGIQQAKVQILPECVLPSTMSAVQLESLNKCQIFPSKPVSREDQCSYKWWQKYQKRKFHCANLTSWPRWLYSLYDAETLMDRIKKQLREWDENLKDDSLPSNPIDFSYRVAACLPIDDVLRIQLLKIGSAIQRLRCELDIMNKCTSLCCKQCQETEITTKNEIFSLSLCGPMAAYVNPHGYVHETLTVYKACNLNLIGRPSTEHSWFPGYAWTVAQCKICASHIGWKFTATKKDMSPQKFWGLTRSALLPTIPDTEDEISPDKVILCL
# Sequence (Q16531 whole entry partner): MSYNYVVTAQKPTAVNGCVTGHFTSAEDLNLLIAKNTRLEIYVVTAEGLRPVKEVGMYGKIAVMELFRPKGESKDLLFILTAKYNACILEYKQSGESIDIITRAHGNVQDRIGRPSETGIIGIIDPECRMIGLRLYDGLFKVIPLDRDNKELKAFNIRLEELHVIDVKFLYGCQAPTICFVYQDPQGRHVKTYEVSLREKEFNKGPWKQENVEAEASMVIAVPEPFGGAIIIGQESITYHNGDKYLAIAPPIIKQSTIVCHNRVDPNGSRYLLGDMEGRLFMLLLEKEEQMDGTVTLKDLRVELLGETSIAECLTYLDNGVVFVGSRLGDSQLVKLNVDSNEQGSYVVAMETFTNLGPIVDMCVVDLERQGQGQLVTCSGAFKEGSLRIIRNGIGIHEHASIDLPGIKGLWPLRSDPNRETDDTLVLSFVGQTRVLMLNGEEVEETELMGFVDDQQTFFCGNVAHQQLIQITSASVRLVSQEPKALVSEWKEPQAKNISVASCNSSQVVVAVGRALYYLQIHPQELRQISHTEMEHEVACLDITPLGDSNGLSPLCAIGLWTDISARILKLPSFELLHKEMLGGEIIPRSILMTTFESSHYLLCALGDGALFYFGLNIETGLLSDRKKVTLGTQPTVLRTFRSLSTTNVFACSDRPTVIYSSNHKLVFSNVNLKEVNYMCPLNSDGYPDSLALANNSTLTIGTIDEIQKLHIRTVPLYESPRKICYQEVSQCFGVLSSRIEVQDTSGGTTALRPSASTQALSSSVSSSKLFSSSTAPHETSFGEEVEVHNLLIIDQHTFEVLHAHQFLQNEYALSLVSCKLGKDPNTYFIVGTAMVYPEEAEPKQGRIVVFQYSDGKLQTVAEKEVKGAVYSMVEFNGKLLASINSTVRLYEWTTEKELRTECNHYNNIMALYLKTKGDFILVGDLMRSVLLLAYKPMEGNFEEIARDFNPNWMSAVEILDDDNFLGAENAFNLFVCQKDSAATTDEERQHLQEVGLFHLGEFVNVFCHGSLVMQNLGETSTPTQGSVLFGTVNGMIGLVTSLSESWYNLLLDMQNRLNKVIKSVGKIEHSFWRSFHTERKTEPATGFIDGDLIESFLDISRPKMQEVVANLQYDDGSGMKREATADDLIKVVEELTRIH
# experimental.protocol: BRAF V600E HiBiT Degradation Assay
# Type: cell-based
# applied.conditions: A375.10 cells, BRAF V600E, 2 hours; read-out: HiBiT-Degradation A375.10 BRAF 2 hours DC50

{"compound": "CCN(C)S(=O)(=O)Nc1ccc(F)c(Oc2ccc3ncn(C4CC5(CCN(C6CCC(c7ccc(NC8CCC(=O)NC8=O)cc7F)CC6)CC5)C4)c(=O)c3c2)c1F (single isomer, unassigned) [Compound 166]", "DC50": "> 10000 nM"}
{"compound": "CN(CCO)S(=O)(=O)Nc1ccc(F)c(Oc2ccc3ncn([C@H]4COC5(CCN([C@H]6C[C@@H](c7cc8c(cc7F)c(N7CCC(=O)NC7=O)nn8C)C6)CC5)C4)c(=O)c3c2)c1C#N", "DC50": "< 1000 nM"}
{"compound": "CCN(C)S(=O)(=O)Nc1ccc(F)c(Oc2ccc3ncn([C@@H]4COC5(C4)CN(C4CCC(c6cc7c(cc6F)c(N6CCC(=O)NC6=O)nn7C)CC4)C5)c(=O)c3c2)c1C#N (single isomer, unassigned) [Compound 238]", "DC50": "< 1000 nM"}
{"compound": "CCN(C)S(=O)(=O)Nc1ccc(F)c(Oc2ccc3ncn([C@H]4COC5(CCN(C6CC(c7ccc(NC8CCC(=O)NC8=O)cc7F)C6)CC5)C4)c(=O)c3c2)c1C#N (single isomer, unassigned) [Compound 63]", "DC50": "< 1000 nM"}
{"compound": "CCN(C)S(=O)(=O)Nc1ccc(F)c(Oc2ccc3ncn([C@@H]4CO[C@]5(CCN(C6CCC(c7cc8c(cc7F)c(N7CCC(=O)NC7=O)nn8C)CC6)C5)C4)c(=O)c3c2)c1C#N (single isomer, unassigned) [Compound 290]", "DC50": "1000 to 10000 nM"}
{"compound": "CCN(C)S(=O)(=O)Nc1ccc(F)c(Oc2ccc3ncn(C4CC5(CCN(C6CC7(CCN(c8cc9c(cc8F)c(N8CCC(=O)NC8=O)nn9C)CC7)C6)CC5)C4)c(=O)c3c2)c1C#N (stereo not drawn)", "DC50": "< 1000 nM"}
{"compound": "CN(CCO)S(=O)(=O)Nc1ccc(F)c(Oc2ccc3ncc([C@@H]4COC5(CCN(C6CCC(c7cc8c(cc7F)c(N7CCC(=O)NC7=O)nn8C)CC6F)CC5)C4)nc3c2)c1C#N (single isomer, unassigned)", "DC50": "> 10000 nM"}
{"compound": "CCN(C)S(=O)(=O)Nc1ccc(F)c(Oc2ccc3ncc(CCC4CCN(C5CCC(c6cc7c(cc6F)c(N6CCC(=O)NC6=O)nn7C)CC5)CC4)nc3c2)c1C#N (single isomer, unassigned) [Compound 129]", "DC50": "< 1000 nM"}
{"compound": "CCN(C)S(=O)(=O)Nc1ccc(F)c(Oc2ccc3ncn([C@H]4COC5(CCN(C6CCC(c7cc8c(cc7F)c(N7CCC(=O)NC7=O)nn8C)CC6)CC5)C4)c(=O)c3c2F)c1C#N (single isomer, unassigned)", "DC50": "< 1000 nM"}

The measured values listed here are drawn from patent US20260297060A1.
